Test system: ryegrass, Italian
Experiment: Test A pre-/postemergence herbicide test
Assay type: in vivo, Lolium multiflorum
Conditions: Preemergence, 500 g ai/ha; visual rating on 0 to 100 scale (0 no effect, 100 complete control)
measured_metric: Ryegrass, Italian plant response rating
Form: value (number only, do not type unit).

// known answers, use as guide
O=C1NCC(c2cccc(Br)c2)C1C(=O)Nc1ccccc1F (centres unmarked) = 0
CSc1cccc(C2CNC(=O)C2C(=O)Nc2ccc(F)cc2F)c1 (centres unmarked) = 20
O=C1NCC(c2ccc(Cl)s2)C1C(=O)Nc1ccccc1C(F)(F)F (centres unmarked) = 0
O=C1NCC(c2cccc(C(F)(F)F)c2)C1C(=O)Nc1ccc(F)c(F)c1F (centres unmarked) = 70

With those in mind, consider the next molecule.
// Ryegrass, Italian plant response rating lookup, molecule = CC1(c2ccccc2)CNC(=O)C1C(=O)Nc1ccccc1F (centres unmarked) , result: 0
